Each recorded value in this set is attributed to patent US20240082341A1.

# target: RBD domain of the S1 subunit of viral S glycoprotein (Severe acute respiratory syndrome coronavirus 2)
# assay.details: Binding of the peptides to the RBD domain of viral S glycoprotein (microscale thermophoresis, MST)
# Set-up: species or system SARS-CoV-2
# run.conditions: peptide-RBD complex, 25° C., cell unit μM, read-out: KD (nM) Tmeasurement 25° C.
Ends that are not written are not given here.

substance | Kd
MYGNYE [Peptide J3.4, MYGNYE] | > 10 µM
